The origin of these recorded values is patent US8026218.

Property: log10(Ki); scope: individual binders
# ASSAY TARGET: T1, rat NK1 receptor (rat, UniProt P14600 1-407)
# T1 construct: whole, on cells; membrane preparations of the transfected cells were used; also called rNK1; rNK-1
# T1 sequence (P14600 whole entry): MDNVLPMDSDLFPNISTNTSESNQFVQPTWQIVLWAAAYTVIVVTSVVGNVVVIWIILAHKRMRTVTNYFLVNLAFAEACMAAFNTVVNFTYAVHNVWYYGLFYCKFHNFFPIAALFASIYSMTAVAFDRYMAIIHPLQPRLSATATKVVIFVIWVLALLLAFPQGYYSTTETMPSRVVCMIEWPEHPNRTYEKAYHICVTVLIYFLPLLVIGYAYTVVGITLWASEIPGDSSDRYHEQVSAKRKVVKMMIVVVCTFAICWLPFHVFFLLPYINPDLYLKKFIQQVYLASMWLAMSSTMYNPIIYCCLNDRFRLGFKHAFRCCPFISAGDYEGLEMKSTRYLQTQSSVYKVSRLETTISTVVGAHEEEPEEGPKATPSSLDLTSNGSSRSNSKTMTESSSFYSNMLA
# ASSAY PROCEDURE: competition vs [3H]Substance P, rNK1 CHO cell membranes
Square brackets hold non-standard residues; d marks the D form. Primed or numbered codes have the meaning given here. Ends that are not written are not given here. O‑Bzl(CF3)2 = C-terminal bis(trifluoromethyl)benzyl ester; O‑Bzl(CF3)2″ = C-terminal Bzl(CF3)2 ester; Abu = CC[C@H](N)C(=O)O; Aib = CC(C)(N)C(=O)O; βAla = NCCC(=O)O
EXPERIMENTAL ENDPOINT: log10(Ki) (log10 of the value in nM)

BINDER	RECORDED VALUE
Y[dA]GFAW-{O‑Bzl(CF3)2} (also called NP31) [Tyr-DAla-Gly-Phe-Ala-Trp-O-Bzl(CF3)2]	0.93
Y[dA]GFLW-{O‑Bzl(CF3)2} (also called NP37) [Tyr-DAla-Gly-Phe-Leu-Trp-O-Bzl(CF3)2]	-0.54
Y[dA]GFMW-{O‑Bzl(CF3)2} (also called NP38) [Tyr-DAla-Gly-Phe-Met-Trp-O-Bzl(CF3)2]	-1.05
Y[dA]GF[Abu]W-{O‑Bzl(CF3)2} (also called NP33) [Tyr-DAla-Gly-Phe-α-Abu-Trp-O-Bzl(CF3)2]	0.08
Y[dA]GF[βAla]W-{O‑Bzl(CF3)2} (also called NP32) [Tyr-DAla-Gly-Phe-β-Ala-Trp-O-Bzl(CF3)2]	0.20
Y[dA]GFXW-{O‑Bzl(CF3)2} (not fully specified (residue 5); printed as Tyr-DAla-Gly-Phe-γ-Abu-Trp-O-Bzl(CF3)2, also called NP34) [Tyr-DAla-Gly-Phe-γ-Abu-Trp-O-Bzl(CF3)2]	0.87
Y[dA]GF[Aib]W-{O‑Bzl(CF3)2″} (also called NP41) [Tyr-DAla-Gly-Phe-Aib-Trp-O-Bzl(CF3)2]	0.53
Y[dA]GF[dA]W-{O‑Bzl(CF3)2} (also called NP40) [Tyr-DAla-Gly-Phe-D-Ala-Trp-O-Bzl(CF3)2]	0.38
Y[dA]GFPW-{O‑Bzl(CF3)2} (also called NP39) [Tyr-DAla-Gly-Phe-Pro-Trp-O-Bzl(CF3)2]	0.20
